test system: Escherichia coli TOP10; assay: shrunken log2 fold change of peptide-encoding DNA abundance (4.5 h post-induction vs induction); higher = less antimicrobial activity (less host growth inhibition); conditions: time post-induction: 4.5 h; library: site-saturation at positions 5, 18, 19, 20
Label rule, in plain words: shrunken log2 fold change of 0.06 and up is Met, under 0.06 is Not met.

Observe how each entry below is paired with its result.
| chain | assigned_category |
| --- | --- |
| RRIRTRPPRLPRPRPRPMQCPRP | Not met |
| RRIRIRPPRLPRPRPRPQCMPRP | Not met |
| RRIRMRPPRLPRPRPRPSKNPRP | Met |
| RRIRTRPPRLPRPRPRPYCYPRP | Not met |
| RRIRLRPPRLPRPRPRPGVAPRP | Met |

Is it the case that RRIRPRPPRLPRPRPRPGIAPRP has shrunken log2 fold change reaching or exceeding 0.06? Met

Is reported shrunken log2 fold change greater than or equal to 0.06 here: RRIRWRPPRLPRPRPRPACVPRP Met

Does the sequence RRIRERPPRLPRPRPRPCINPRP have recorded shrunken log2 fold change that is 0.06 or more? Not met

Is the recorded value of shrunken log2 fold change equal to or greater than 0.06 for this sequence? RRIRGRPPRLPRPRPRPLTWPRP Met

* * *

test system: Escherichia coli TOP10; assay: shrunken log2 fold change of peptide-encoding DNA abundance (4.5 h post-induction vs induction); higher = less antimicrobial activity (less host growth inhibition); details: time post-induction: 4.5 h; library: site-saturation at positions 5, 18, 19, 20
We use -0.09 as the dividing line for shrunken log2 fold change: on or above the line is MET, below is NOT MET.

Before answering, review these 3 worked examples.
| chain | system_name | assigned_category |
| --- | --- | --- |
| RRIRTRPPRLPRPRPRPGCEPRP | Escherichia coli TOP10 | NOT MET |
| RRIRLRPPRLPRPRPRPSNGPRP | Escherichia coli TOP10 | MET |
| RRIRPRPPRLPRPRPRPRNMPRP | Escherichia coli TOP10 | NOT MET |

Does the sequence RRIRTRPPRLPRPRPRPCGNPRP have recorded shrunken log2 fold change that is -0.09 or more? MET

API: above_or_equal(metric=shrunken log2 fold change, cutoff=-0.09) for item RRIRGRPPRLPRPRPRPWICPRP MET

* * *

For each entry below, report its shrunken log2 fold change value.
test system: Escherichia coli TOP10; assay: shrunken log2 fold change of peptide-encoding DNA abundance (4.5 h post-induction vs induction); higher = less antimicrobial activity (less host growth inhibition); details: time post-induction: 4.5 h; library: site-saturation at positions 5, 18, 19, 20;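 note: peptides expressed intracellularly from a pBAD plasmid library in pooled LB shake-flask culture, induced with 0.3% L-arabinose, DNA abundance read by NGS, three biological replicates, DESeq2 with apeglm shrinkage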
Answers are plain numbers.

Consider the worked cases shown below.
| chain | quantity_measured | result_number |
| --- | --- | --- |
| RRIRMRPPRLPRPRPRPDGMPRP | shrunken log2 fold change | 1.73 |
| RRIRPRPPRLPRPRPRPFSAPRP | shrunken log2 fold change | 0.0672 |
| RRIRFRPPRLPRPRPRPVSNPRP | shrunken log2 fold change | -0.0552 |
| RRIRDRPPRLPRPRPRPHTIPRP | shrunken log2 fold change | -0.351 |
| RRIRLRPPRLPRPRPRPAPNPRP | shrunken log2 fold change | 0.555 |
| RRIRIRPPRLPRPRPRPNSLPRP | shrunken log2 fold change | -0.457 |
| RRIRSRPPRLPRPRPRPNRNPRP | shrunken log2 fold change | -0.163 |
| RRIRCRPPRLPRPRPRPWWEPRP | shrunken log2 fold change | -0.368 |

Give recorded shrunken log2 fold change. RRIRERPPRLPRPRPRPVALPRP -0.377
